system: C2C12 (NDUFB8-AcGFP / COX8A-DsRed-Monomer FRET reporter); test: cFRET/donor change relative to DMSO, normalised to beta-lapachone positive control (supercomplex I-IV assembly) (fraction of beta-lapachone effect); higher = more respiratory supercomplex assembly; details: 40 µM; 24 h
Counter-ions that a name gives are not always drawn. Over roughly 1,000 compounds, “cFRET/donor change relative to DMSO, normalised to beta-lapachone positive control (supercomplex I-IV assembly)” has its median near 0.18; the lowest 2% begin near -1. For the sample, the lowest values were picked, then their nearest neighbours and some compounds at random.
Provide the reported cFRET/donor change of each item.
Kindly provide the number alone.

## Task Value lookup for cFRET/donor change; key = NC(=O)C1=CN(C2OC(COP(=O)(O)OP(=O)(O)OC[C@H]3O[C@@H](n4cnc5c(N)ncnc54)C(OP(=O)(O)O)[C@H]3O)C(O)C2O)C=CC1 (stereo partly drawn) [NADPH tetrasodium]
## Result -0.198

## Task Value lookup for cFRET/donor change; key = COc1ccccc1CNC1CCCNC1c1ccccc1 (stereo not drawn)
## Result 0.266

## Task Value lookup for cFRET/donor change; key = Cc1cccc(-c2[nH]ncc2-c2ccc3ncccc3n2)n1
## Result 0.0385

## Task Value lookup for cFRET/donor change; key = COc1ccc2c(c1)CC[C@@H]1[C@@H]2CC[C@]2(C)[C@@H](NCCCCCCN3C(=O)CCC3=O)CC[C@@H]12
## Result 0.325

## Task Value lookup for cFRET/donor change; key = O=C(NOCC1CC1)c1cc(Br)c(F)c(F)c1Nc1ccc(I)cc1Cl
## Result 0.176

## Task Value lookup for cFRET/donor change; key = Cc1[nH]c(=O)c(C#N)cc1-c1ccc2nccn2c1 [Olprinone hydrochloride]
## Result 0.211

## Task Value lookup for cFRET/donor change; key = NCC=CC(=O)O (stereo in doubt) [cis-4-Aminocrotonic acid]
## Result 0.532

## Task Value lookup for cFRET/donor change; key = CC[C@H]1OC(=O)[C@H](C)[C@@H](O[C@H]2C[C@@](C)(OC)[C@@H](O)[C@H](C)O2)[C@H](C)[C@@H](O[C@@H]2O[C@H](C)C[C@H](NC)[C@H]2O)[C@](C)(O)C[C@@H](C)CN(C)[C@H](C)[C@@H](O)[C@]1(C)O
## Result 0.325

====

tested on: C2C12 (NDUFB8-AcGFP / COX8A-DsRed-Monomer FRET reporter); experiment: cFRET/donor change relative to DMSO, normalised to beta-lapachone positive control (supercomplex I-IV assembly) (fraction of beta-lapachone effect); higher = more respiratory supercomplex assembly; settings: 40 µM; 24 h
Structures can show the parent of a compound that is named as a salt. Whole data set: some 1,000 compounds, median “cFRET/donor change relative to DMSO, normalised to beta-lapachone positive control (supercomplex I-IV assembly)” near 0.18, cut for the lowest 2% near -1. What follows is part of a selection rich in the lowest values, with near analogues and random picks from the rest.
Provide the reported cFRET/donor change of each item.
Kindly provide the number alone.

## Task Identify the measured cFRET/donor change of Cn1c(=O)c2[nH]c(-c3ccc(S(=O)(=O)O)cc3)nc2n(C)c1=O for C2C12 (NDUFB8-AcGFP / COX8A-DsRed-Monomer FRET reporter).
## Result 0.086

## Task Identify the measured cFRET/donor change of C=C1C[C@@]23CC[C@H]4[C@@](C)(CCC[C@@]4(C)C(=O)O[C@@H]4O[C@H](CO)[C@@H](O)[C@H](O)[C@H]4O)[C@@H]2CC[C@]1(O[C@@H]1O[C@H](CO)[C@@H](O)[C@H](O)[C@H]1O[C@@H]1O[C@H](CO)[C@@H](O)[C@H](O)[C@H]1O)C3 [Stevioside] for C2C12 (NDUFB8-AcGFP / COX8A-DsRed-Monomer FRET reporter).
## Result 0.0782

## Task Identify the measured cFRET/donor change of N[C@H](C(=O)O)[C@H](Cc1ccccc1)C(=O)O [L-Beta-threo-benzyl-aspartate] for C2C12 (NDUFB8-AcGFP / COX8A-DsRed-Monomer FRET reporter).
## Result -0.122

## Task Identify the measured cFRET/donor change of Cc1nc(C#Cc2cccnc2)cs1 [MTEP hydrochloride] for C2C12 (NDUFB8-AcGFP / COX8A-DsRed-Monomer FRET reporter).
## Result 0.691

## Task Identify the measured cFRET/donor change of Cn1c(=O)c2[nH]c(-c3ccccc3)nc2n(C)c1=O for C2C12 (NDUFB8-AcGFP / COX8A-DsRed-Monomer FRET reporter).
## Result -1.5

## Task Identify the measured cFRET/donor change of C[N+](C)(C)CCO.[Br-] [Choline bromide] for C2C12 (NDUFB8-AcGFP / COX8A-DsRed-Monomer FRET reporter).
## Result 0.313

## Task Identify the measured cFRET/donor change of CN1Cc2sccc2C(c2ccc(O)c(O)c2)C1 (configuration not stated) for C2C12 (NDUFB8-AcGFP / COX8A-DsRed-Monomer FRET reporter).
## Result 0.596

====

tested on: C2C12 (NDUFB8-AcGFP / COX8A-DsRed-Monomer FRET reporter); assay: cFRET/donor change relative to DMSO, normalised to beta-lapachone positive control (supercomplex I-IV assembly) (fraction of beta-lapachone effect); higher = more respiratory supercomplex assembly; details: 40 µM; 24 h
Counter-ions that a name gives are not always drawn. Whole data set: some 1,000 compounds, median “cFRET/donor change relative to DMSO, normalised to beta-lapachone positive control (supercomplex I-IV assembly)” near 0.18, cut for the lowest 2% near -1. The sample as a whole holds a higher share of the lowest values than the screen did.
Criterion: cFRET/donor change meeting or surpassing 0.3. Met: 1. Not met: -1.

## Task Identify whether the reported cFRET/donor change of the following compound is 0.3 or greater: O=C(Nc1ccccc1C(=O)NC1CCCCNC1=O)c1cc2ccccc2s1 (configuration not stated)
## Result 1

## Task Identify whether the reported cFRET/donor change of the following compound is 0.3 or greater: Clc1ccc(C(c2ccccc2Cl)C(Cl)Cl)cc1 (configuration not stated)
## Result -1

## Task Identify whether the reported cFRET/donor change of the following compound is 0.3 or greater: O=c1n(CCCN2CCN(c3cccc(Cl)c3)CC2)nc2ccccn12 [Trazodone hydrochloride]
## Result 1

## Task Identify whether the reported cFRET/donor change of the following compound is 0.3 or greater: COCCOc1cc2ncnc(Cl)c2cc1OCCOC
## Result -1

## Task Identify whether the reported cFRET/donor change of the following compound is 0.3 or greater: O=C1c2c(O)cc(O)cc2O[C@H](c2ccc(O)c(O)c2)[C@H]1O (racemic) [(±)-Taxifolin]
## Result -1

## Task Identify whether the reported cFRET/donor change of the following compound is 0.3 or greater: CCCCN(CC)c1nc(C)nc2c1c(C)cn2-c1c(C)cc(C)cc1C
## Result 1

## Task Identify whether the reported cFRET/donor change of the following compound is 0.3 or greater: O=c1c(O)c(-c2ccc(O)cc2O)oc2cc(O)cc(O)c12
## Result -1

## Task Identify whether the reported cFRET/donor change of the following compound is 0.3 or greater: c1ccc2c(c1)CC(N1CCN(c3cccc4c3OCCO4)CC1)C2
## Result -1

## Task Identify whether the reported cFRET/donor change of the following compound is 0.3 or greater: O=c1c(-c2ccc(O)cc2)coc2cc(O)ccc12
## Result -1

## Task Identify whether the reported cFRET/donor change of the following compound is 0.3 or greater: CCCCCCCCCCCCCCCC(=O)OC[C@H](COP(=O)(O)OCCNC(=O)[C@H](C)NC(=O)CC[C@@H](NC(=O)[C@H](C)NC(=O)[C@@H](C)O[C@H]1[C@H](O)[C@@H](CO)OC(O)[C@@H]1NC(C)=O)C(N)=O)OC(=O)CCCCCCCCCCCCCCC (some centres not stated) [Mifamurtide]
## Result -1

## Task Identify whether the reported cFRET/donor change of the following compound is 0.3 or greater: CN(CCCOc1ccc(Cc2ccccc2)cc1)CCC(=O)O
## Result 1

## Task Identify whether the reported cFRET/donor change of the following compound is 0.3 or greater: COc1ccc2[nH]c([S@@+]([O-])Cc3ncc(C)c(OC)c3C)nc2c1 [Esomeprazole magnesium dihydrate]
## Result 1

## Task Identify whether the reported cFRET/donor change of the following compound is 0.3 or greater: N=C(N)NC(=O)c1nc(Cl)c(N)nc1N [Amiloride hydrochloride]
## Result -1

## Task Identify whether the reported cFRET/donor change of the following compound is 0.3 or greater: N=C(N)c1ccc(OCCCCCOc2ccc(C(=N)N)cc2)cc1 [Pentamidine isethionate]
## Result -1

## Task Identify whether the reported cFRET/donor change of the following compound is 0.3 or greater: CN(C)c1ccccc1CN1CCCN(Cc2ccccc2N(C)C)C1c1ccncc1
## Result 1

The values you see were collected from the supplement of paper PMC9877034.
